# Tested on: U2OS
# method: Multiplex assay against U2OS
# Format: toxicity, cell-based
# recorded.conditions: human, 48 h, 10 µM, compound concentration 10 uM, replicate 1
measured.quantity: Population Normal (%)
Numeric only. Scale: %

Here are 2 compounds together with their reported answers.
compound=C[C@H]1[C@H]2CC[C@H]3[C@@H]4CC=C5C[C@@H](N(C)C)CC[C@]5(C)[C@H]4CC[C@]23CN1C test_value=98
compound=O=C(NCCO)c1cccc(-c2cc(Nc3ccc(OC(F)(F)F)cc3)ncn2)c1 test_value=96

### Prompt Name the value of Population Normal (%) reported for CCCN1CCC[C@@H]2Cc3n[nH]cc3C[C@H]21.Cl [QUINPIROLE HYDROCHLORIDE] when tested on U2OS.
### Response 96

### Prompt Name the value of Population Normal (%) reported for CN1CCN(c2nc3cc(C(F)(F)F)ccc3n3cccc23)CC1.O=C(O)/C=C\C(=O)O.O=C(O)/C=C\C(=O)O when tested on U2OS.
### Response 95

### Prompt Name the value of Population Normal (%) reported for Cc1ccc(/C(=C\CN2CCCC2)c2ccccn2)cc1 when tested on U2OS.
### Response 97

###

# Test system: U2OS
# method: Multiplex assay against U2OS
# Assay type: toxicity, cell-based
# recorded.conditions: human, 48 h, 10 µM, compound concentration 10 uM, replicate 2
Examples of molecules with documented Population Tubulin-Different-Phenotype (%) follow.
Numeric only. Scale: %

molecule=COc1cc(C(=O)N(CCCc2ccccc2)Cc2ccc(CC(=O)O)cc2)cc(OC)c1C unit_label=% test_value=4
molecule="CSc1ccccc1N1CCN(CCCCCC(=O)NC2CCCc3ccccc32)CC1.Cl (stereo not drawn)" unit_label=% test_value=95
molecule="CCCN1CCC[C@@H]2Cc3n[nH]cc3C[C@H]21.Cl [QUINPIROLE HYDROCHLORIDE]" unit_label=% test_value=2
molecule=O=C1COc2nccc(-c3ccccc3F)c2CN1Cc1cc(C(F)(F)F)cc(C(F)(F)F)c1 unit_label=% test_value=3
molecule=Cc1ccc(F)cc1C(=O)Nc1ccc(C(=O)N2Cc3cccn3Cc3ccccc32)c(Cl)c1 unit_label=% test_value=57

### Prompt Name the value of Population Tubulin-Different-Phenotype (%) reported for CCNC1(C(N)=O)CCN(c2ncnc3c2nc(-c2ccccc2Cl)n3-c2ccc(Cl)cc2)CC1 when tested on U2OS.
### Response 49

### Prompt Name the value of Population Tubulin-Different-Phenotype (%) reported for CC1(COc2ccc3c(c2)ncn3-c2ccc3cccc(N4CCC(N)CC4)c3n2)COC1 when tested on U2OS.
### Response 28

### Prompt Name the value of Population Tubulin-Different-Phenotype (%) reported for C[C@H](NC(=O)c1c(C(F)F)nn(C)c1Oc1cccc(C(F)(F)F)c1)c1ccc(C(=O)O)cc1 when tested on U2OS.
### Response 0

###

# Tested on: HEK-293T
# method: Multiplex assay against HEK293T
# Format: toxicity, cell-based
# recorded.conditions: human, 48 h, 1 µM, compound concentration 1 uM, replicate 1
Examples of compounds with documented Population Fragmented Nuclei (%) follow.
Numeric only. Scale: %

compound="Cc1ccc(C(C)(O)c2nc3ccccc3s2)c(C)c1 (centres undefined)" measured_quantity="Population Fragmented Nuclei (%)" test_value=20

### Prompt Annotate the compound CN(C)CCCc1cc(C(=O)Nc2ccc(-c3ccncc3)cc2)ccc1O.Cl.Cl with its measured Population Fragmented Nuclei (%).
### Response 11

### Prompt Annotate the compound CNC[C@H](O)c1ccc(O)c(O)c1 [EPINEPHRINE] with its measured Population Fragmented Nuclei (%).
### Response 11

### Prompt Annotate the compound CC[C@H]1OC(=O)[C@H](C)[C@@H](O[C@H]2C[C@@](C)(OC)[C@@H](O)[C@H](C)O2)[C@H](C)[C@@H](O[C@@H]2O[C@H](C)C[C@H](N(C)C)[C@H]2O)[C@@]2(C)CC(C)=C(O2)[C@H](C)[C@@H](O)[C@]1(C)O with its measured Population Fragmented Nuclei (%).
### Response 12
